Please go through the items and note down their TBIL.
Species on record: Rattus norvegicus
assay.remarks: Open TG-GATES - Regimen: Daily Repeat
Assay type: toxicity, organism-based, Sprague-Dawley
Parameters: regimen Daily Repeat, gender Male, age 6 weeks
conditions.used: in vivo, po, 0 mg/kg, […], tissue Plasma, route gavage, dose level Control, time 14 day
Kindly provide the numeric value in mg/dL only, without the unit symbol.

Lookup result for CC(N)=O [ACETAMIDE] ; measured TBIL: 0

Lab note: measured TBIL of CCN(CC)N=O [N-NITROSODIETHYLAMINE] was 0.1

GET /value?item= O=C(O)COc1nn(Cc2ccccc2)c2ccccc12 [BENDAZAC] &field=TBIL returns 0.3

For CC(C)Cc1ccc(C(C)C(=O)O)cc1 (stereo not drawn) [IBUPROFEN] the compound record lists TBIL as 0.012

So, CC(CCc1ccccc1)NCC(O)c1ccc(O)c(C(N)=O)c1 (stereo not drawn) [LABETALOL] ? Its TBIL was 0.024

Looking up CC(=O)N1CCN(c2ccc(OCC3COC(Cn4ccnc4)(c4ccc(Cl)cc4Cl)O3)cc2)CC1 (stereo not drawn) [KETOCONAZOLE] , I see its TBIL listed as 0.002

Just so you know, measured TBIL for CC(=O)Nc1ccc2c(c1)Cc1ccccc1-2 [2-ACETYLAMINOFLUORENE] came out at 0.2

Measured TBIL, CC[C@@H](CO)NCCN[C@@H](CC)CO [ETHAMBUTOL] : 0
